# Assay Text: BSK_BT_Bcell_Proliferation: Viability Assessment in the BioMAP Diversity Plus: BT Assay for B cell Proliferation (AID 2284227)
# Condition Context: primary human B cells with PBMC
Calls of active or inactive are those of the source. Rule for the calls: active = hit-call score of the fitted dose curve at least 0.9, where 1 is the maximum; inactive = score below 0.9.
Field 'call' accepts Y = active, N = inactive

Kindly provide the recorded test outcome for the following compound: `Cc1ccc(O)c(-n2nc3ccccc3n2)c1` N

Kindly provide the recorded test outcome for the following compound: `CO[Si](C)(CCC(F)(F)C(F)(F)C(F)(F)C(F)(F)C(F)(F)C(F)(F)F)OC` N

Kindly provide the recorded test outcome for the following compound: `Cc1ccc(S(=O)(=O)C(I)I)cc1` Y

Further cases:
Kindly provide the recorded test outcome for the following compound: `Nc1cc([N+](=O)[O-])cc(Cl)c1O` N

Kindly provide the recorded test outcome for the following compound: `O=C(O)C(F)(F)OC(F)(F)C(F)(F)OC(F)(F)C(F)(F)OC(F)(F)F` N

Kindly provide the recorded test outcome for the following compound: `O=S(=O)(OCC(F)(F)F)C(F)(F)C(F)(F)C(F)(F)C(F)(F)F` N

---

# Read-out: Interferon-inducible T-cell alpha chemoattractant (ITAC), CXCL11 (gene 6373)
# Assay Text: BSK_BE3C_ITAC: BioMAP Diversity Plus: BE3C Assay for Interferon-inducible T-cell alpha chemoattractant (ITAC) Biomarker Activity (AID 2284279)
# Condition Context: primary human bronchial epithelial cells
Calls of active or inactive are those of the source. Rule for the calls: active = hit-call score of the fitted dose curve at least 0.9, where 1 is the maximum; inactive = score below 0.9.
Measure Name: outcome

Can you share its outcome? I mean this molecule: OCC(O)CC(F)(F)C(F)(F)C(F)(F)C(F)(F)F (stereo not drawn) inactive

Can you share its outcome? I mean this molecule: `OC(O)C(F)(F)C(F)(F)F` inactive

Can you share its outcome? I mean this molecule: `OCC(F)(F)C(F)(F)C(F)(F)CO` inactive

---

# Assay Text: Tanguay_ZF_120hpf_DP24: Oregon State University Tanguay Lab 24 Hour Post-fertilization zebrafish Assay for Delayed Development (AID 2284390)
The source made the active and inactive calls. Rule for the calls: active = hit-call score of the fitted dose curve at least 0.9, where 1 is the maximum; inactive = score below 0.9.
Field 'call' accepts t (active), f (inactive)

Please review the entries below; each comes with its answer.
Kindly provide the recorded test outcome for the following molecule: `CO[Si](C)(CCC(F)(F)C(F)(F)C(F)(F)C(F)(F)C(F)(F)C(F)(F)F)OC` f

Kindly provide the recorded test outcome for the following molecule: `NC(O)(C(F)(F)F)C(F)(F)F` f

Further cases:
Kindly provide the recorded test outcome for the following molecule: `NC(=O)C(F)(F)C(F)(F)C(F)(F)C(F)(F)C(N)=O` f

Kindly provide the recorded test outcome for the following molecule: `FC(F)(F)C(F)(F)C(F)(F)C(F)(F)C(F)(F)C(F)(F)C(F)(F)CCI` f

Kindly provide the recorded test outcome for the following molecule: OCC(O)CC(F)(F)C(F)(F)C(F)(F)C(F)(F)C(F)(F)C(F)(F)C(F)(F)C(F)(F)F (configuration not stated) f

Kindly provide the recorded test outcome for the following molecule: `OCCCCC(F)(F)C(F)(F)C(F)(F)C(F)(F)F` f

---

# Assay Text: ACEA_ER_80hr: ACEA Biosciences xCELLigence Real-Time Cell Analysis on Estrogen Receptor Agonism for Proliferation (AID 2282667)
# Condition Context: T47D proliferation, impedance (xCELLigence), 80 h
Records with an inconclusive call do not appear. Calls of active or inactive are those of the source. Rule for the calls: active = hit-call score of the fitted dose curve at least 0.9, where 1 is the maximum; inconclusive = response in the unintended direction; inactive = score below 0.9.
Field 'call' accepts active, inactive

Kindly provide the recorded test outcome for the following compound: `FC(F)(F)C(F)(F)C(F)(F)C(F)(F)C(F)(F)C(F)(F)C(F)(F)CCI` inactive

Kindly provide the recorded test outcome for the following compound: CCCCOC(=O)C(C)O (configuration not stated) inactive

Kindly provide the recorded test outcome for the following compound: `C[Si](C)O[Si](C)C` inactive

---

# Assay Text: ATG_GLI_CIS: Attagene CIS-FACTORIAL HepG2 Assay for human Zinc Finger Protein GLI1 (AID 2282945)
# Condition Context: HepG2, Attagene cis-factorial reporter mRNA, GLI element; actives raise or lower the signal
Calls of active or inactive are those of the source. Rule for the calls: active = hit-call score of the fitted dose curve at least 0.9, where 1 is the maximum; inactive = score below 0.9.
Field 'call' accepts 1 (yes) (active), 0 (no) (inactive)

Kindly provide the recorded test outcome for the following compound: `O=S(=O)(O)CCC(F)(F)C(F)(F)C(F)(F)C(F)(F)C(F)(F)C(F)(F)C(F)(F)C(F)(F)F` 0 (no)

Kindly provide the recorded test outcome for the following compound: `CC(C)CC=C(C=O)c1ccccc1` 0 (no)

Kindly provide the recorded test outcome for the following compound: `CCc1cc(Cc2cc(CC)c(N)c(CC)c2)cc(CC)c1N` 1 (yes)

Kindly provide the recorded test outcome for the following compound: `O=C(c1ccccc1)c1ccc(Cl)cc1` 0 (no)

Kindly provide the recorded test outcome for the following compound: `Cc1cc(C)c(O)c(C(C)(C)C)c1` 0 (no)

Here's the next entry for you.
Kindly provide the recorded test outcome for the following compound: `CC(C)(C)C(=O)C1C(=O)c2ccccc2C1=O` 0 (no)

---

# Test system: DIO3 (gene 1735)
# Assay Text: CCTE_GLTED_hDIO3: CCTE's human Deiodinase 3 (DIO3) Inhibition Assay, Great Lakes Toxicology and Ecology Division (GLTED) Lab (AID 2284055);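 note: potency is for inhibition seen as loss of released iodide signal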
Active and inactive are the calls of the source. Rule for the calls: active = hit-call score of the fitted dose curve at least 0.9, where 1 is the maximum; inconclusive = response in the unintended direction; inactive = score below 0.9.
Measure Name: AC50

Below: 4 molecules and their reported AC50.
Can you share its AC50? I mean this molecule: `CCCCCCCCCCCCC[N+](C)(C)Cc1ccccc1` 17 µM (active)

Can you share its AC50? I mean this molecule: `C=CC(=O)OCCC(F)(F)C(F)(F)C(F)(F)C(F)(F)F` 51.8 µM (active)

Can you share its AC50? I mean this molecule: `CCN=C1C=CC(=C(c2ccc(N(CC)CC)cc2)c2ccc(N(CC)CC)cc2)c2ccccc21` 8.42 µM (active)

Can you share its AC50? I mean this molecule: `C=CC(=O)OCC(F)(F)C(F)(F)C(F)(F)COC(=O)C=C` 45.1 µM (active)

# context switch: different molecule, same AC50
Can you share its AC50? I mean this molecule: CCCCCCCC/C=C\CCCCCCCC(=O)OCC(O)CO (stereo not given) 21.3 µM (active)

---

# Assay Text: CEETOX_H295R_ANDR: CeeTox H295R High-throughput Steroidogenesis Assay for Androstenedione (ANDR) (AID 2283436);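 note: human H295R adrenal cells exposed for 48 h with androstenedione measured in medium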
# Condition Context: actives raise or lower the signal
Active and inactive are the calls of the source. The calls were made as follows: active = hit-call score of the fitted dose curve at least 0.9, where 1 is the maximum; inactive = score below 0.9.
Field 'call' accepts class 1 for active, class 0 for inactive

Please review the entries below; each comes with its answer.
Kindly provide the recorded test outcome for the following compound: `CCn1c2ccccc2c2ccccc21` class 1

Kindly provide the recorded test outcome for the following compound: `O=C1C=CC(=O)N1c1ccccc1` class 0

Kindly provide the recorded test outcome for the following compound: `O=C(c1ccccc1)c1ccc(Cl)cc1` class 0

Kindly provide the recorded test outcome for the following compound: `Cc1cccc(C)n1` class 0

Kindly provide the recorded test outcome for the following compound: `CCCCCCCCCc1ccc(OCCO)cc1` class 0

Further cases:
Kindly provide the recorded test outcome for the following compound: `Oc1ccc2c(c1)CCC2` class 0

Kindly provide the recorded test outcome for the following compound: `CCN(CC)c1ccc(C=O)cc1` class 0

Kindly provide the recorded test outcome for the following compound: `C[C@]12CC[C@H]3C(=CCc4cc(O)ccc43)[C@@H]1CCC2=O` class 1

Kindly provide the recorded test outcome for the following compound: `CCN(CC)c1ccc(N=Nc2ccccc2)cc1` class 0

---

# Assay Text: BSK_4H_SRB: Viability Assessment in the BioMAP Diversity Plus: 4H Assay (AID 2283027);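 note: cells exposed to compound for 24 h before staining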
# Condition Context: primary human endothelial cells (HUVEC)
Active and inactive are the calls of the source. The calls were made as follows: active = hit-call score of the fitted dose curve at least 0.9, where 1 is the maximum; inactive = score below 0.9.
Field 'call' accepts active, inactive

Please review the entries below; each comes with its answer.
Kindly provide the recorded test outcome for the following molecule: FC(F)(F)C(F)(F)C(F)(F)CC1CO1 (configuration not stated) inactive

Kindly provide the recorded test outcome for the following molecule: `NC(O)(C(F)(F)F)C(F)(F)F` inactive

Kindly provide the recorded test outcome for the following molecule: `O=C=Nc1cccc2c(N=C=O)cccc12` inactive

Kindly provide the recorded test outcome for the following molecule: `O=C(O)CCC(F)(F)C(F)(F)C(F)(F)C(F)(F)C(F)(F)C(F)(F)C(F)(F)F` inactive

Kindly provide the recorded test outcome for the following molecule: `O=C(O)CCC(F)(F)C(F)(F)C(F)(F)F` inactive

Further cases:
Kindly provide the recorded test outcome for the following molecule: `NCC(F)(F)C(F)(F)C(F)(F)C(F)(F)C(F)(F)C(F)(F)F` inactive

Kindly provide the recorded test outcome for the following molecule: `CCN(CC)c1ccc(N=Nc2ccccc2)cc1` active

---

# Read-out: Monokine induced gamma interferon (MIG), CXCL9 (gene 4283)
# Assay Text: BSK_hDFCGF_MIG: BioMAP Diversity Plus: hDFCGF Assay for Monokine induced gamma interferon (MIG) Biomarker Activity (AID 2283063)
# Condition Context: primary human foreskin fibroblasts; actives raise or lower the signal
Active and inactive are the calls of the source. Rule for the calls: active = hit-call score of the fitted dose curve at least 0.9, where 1 is the maximum; inactive = score below 0.9.
Measure Name: AC50

Can you share its AC50? I mean this molecule: `OCC(F)(F)C(F)(F)C(F)(F)C(F)(F)C(F)(F)C(F)(F)CO` inactive

Can you share its AC50? I mean this molecule: `O=S(=O)(O)CCC(F)(F)C(F)(F)C(F)(F)C(F)(F)F` inactive

Can you share its AC50? I mean this molecule: `OCCCCC(F)(F)C(F)(F)C(F)(F)C(F)(F)F` inactive

Can you share its AC50? I mean this molecule: `FC(F)(F)C(F)(F)C(F)(F)C(F)(F)C(F)(F)C(F)(F)CC[Si](Cl)(Cl)Cl` inactive

Can you share its AC50? I mean this molecule: `NC(=O)C(F)(F)C(F)(F)C(F)(F)C(F)(F)C(N)=O` inactive

# context switch: different molecule, same AC50
Can you share its AC50? I mean this molecule: `Nc1cc([N+](=O)[O-])cc(Cl)c1O` inactive
